The reported numbers originate from PubChem BioAssay.

molecular target: Sentrin-specific protease 7 (Homo sapiens) (UniProt Q9BQF6); test: SENP7 protease inhibitors, retest, confirmation, biochemical, luminescence, single concentration (AID 488917); conditions: recombinant SENP7, Z-RLRGG-aminoluciferin luminescence, 40 min; at 12.5 µM; stronger effect = higher value
The list shows a part of the results.
Given measured inhibition, output Satisfied if it is greater than or equal to 90% and Not satisfied if not.

[
  {
    "Smiles Notation": "Fc1ccccc1-c1cc2cc3c(cc2cn1)OCO3",
    "Qualitative Label": "Not satisfied"
  },
  {
    "Smiles Notation": "CC(=NCc1ccco1)c1c(C(F)(F)F)[nH]n(-c2nc3ccccc3s2)c1=O",
    "Qualitative Label": "Satisfied"
  },
  {
    "Smiles Notation": "Cc1ccc(F)c(NC(=O)CCc2ccccc2)c1",
    "Qualitative Label": "Not satisfied"
  },
  {
    "Smiles Notation": "O=c1c2cc(-c3ccccc3)sc2nc2n1N=C(c1cccs1)CS2",
    "Qualitative Label": "Not satisfied"
  },
  {
    "Smiles Notation": "COc1cccc(C(=O)Nc2nc3ccc(S(C)(=O)=O)cc3s2)c1",
    "Qualitative Label": "Satisfied"
  },
  {
    "Smiles Notation": "O=C(Nc1ccc(Cl)cn1)c1ccc2c(c1)OCCO2",
    "Qualitative Label": "Satisfied"
  },
  {
    "Smiles Notation": "COc1cccc(-c2nc3cc(C)ccc3o2)c1",
    "Qualitative Label": "Satisfied"
  },
  {
    "Smiles Notation": "Cc1cccc(NS(=O)(=O)c2cccc(C(=O)NNC(=O)c3ccccc3O)c2)c1",
    "Qualitative Label": "Not satisfied"
  },
  {
    "Smiles Notation": "Nc1ncc(-c2cc3ccccc3oc2=O)s1",
    "Qualitative Label": "Satisfied"
  },
  {
    "Smiles Notation": "O=c1oc2ccccc2cc1-c1cn(-c2ccccc2)c(=S)[nH]1",
    "Qualitative Label": "Not satisfied"
  }
]

====

test: inhibitors of PAF-induced NFkB signaling in CF airway cells, dose response, cell-based, uHTS hits, panel, cytotoxicity readout (AID 624344); details: CF bronchial epithelial cells, PAF-induced NFkB reporter inhibition, with PAF, run 2; at 79 µM (top of the series) unless noted
Entries and their measured inhibition follow.
Value Kind: inhibition (%)

[
  {
    "Molecule": "CCOC(=O)C1(C(=O)OCC)COC(=O)C1CN1Cc2cc3ccccc3nc2C1 (stereo not drawn)",
    "Unit Name": "%",
    "Endpoint Result": 65.6
  },
  {
    "Molecule": "c1cc(-c2cnc3cccnn23)c2cccnc2c1",
    "Unit Name": "%",
    "Endpoint Result": 105
  },
  {
    "Molecule": "C=C(c1ccc2nc(NC(=O)OC)[nH]c2c1)c1cccs1",
    "Unit Name": "%",
    "Endpoint Result": 110
  },
  {
    "Molecule": "CCN1CCN(Cc2ccc(NC(=O)c3ccc(C)c(NC(=O)c4cccc5[nH]ccc45)c3)cc2C(F)(F)F)CC1",
    "Unit Name": "%",
    "Endpoint Result": 77.6
  },
  {
    "Molecule": "Cc1nn(-c2cccc(Cl)c2)c2nc(C(F)(F)F)[nH]c(=O)c12",
    "Unit Name": "%",
    "Endpoint Result": 79.8
  },
  {
    "Molecule": "O=C(O)/C=C/c1ccc2c(-c3ccccc3)onc2c1",
    "Unit Name": "%",
    "Endpoint Result": 105
  },
  {
    "Molecule": "COc1ccc(-c2csc(NC3OC(=O)c4c3ccc(OC)c4OC)n2)cc1OC (stereo not drawn)",
    "Unit Name": "%",
    "Endpoint Result": 100
  },
  {
    "Molecule": "O=C(Nc1nnc(C(F)(F)F)s1)c1ccc(Br)s1",
    "Unit Name": "%",
    "Endpoint Result": 74.5
  },
  {
    "Molecule": "Cc1csc(CNc2ncnc3ccc(-c4ccoc4)cc23)c1",
    "Unit Name": "%",
    "Endpoint Result": 99.4
  },
  {
    "Molecule": "COc1cc2oc(=O)cc(-c3ccc(-c4ccc(N(C)C)cc4)cc3)c2c(OC)c1OC",
    "Unit Name": "%",
    "Endpoint Result": 69.4
  },
  {
    "Molecule": "O=c1cc(-c2ccccc2Cl)oc2cc(O)cc(O)c12",
    "Unit Name": "%",
    "Endpoint Result": 93.7
  },
  {
    "Molecule": "COc1ccc(/C=N/NC(=O)c2[nH]c3ccc(Br)cc3c2-c2ccccc2)cc1",
    "Unit Name": "%",
    "Endpoint Result": 71.3
  },
  {
    "Molecule": "O=C(NCCCSc1ccccc1)c1cc(Cl)ccc1O",
    "Unit Name": "%",
    "Endpoint Result": 117
  }
]

====

assay: TRAIL sensitizers in caspase-8 expressing neuroblastoma cells, dose response, NB7 cells plus caspase-8, luminescence, panel (AID 652002); details: NB7 neuroblastoma +caspase-8, no TRAIL, compound-alone cytotoxicity counter-screen, luminescence viability, NB7+Caspase-8, run 1; at 12.5 µM (top of the series) unless noted

[
  {
    "Smiles Notation": "Cc1nn(-c2ccccc2)c2nc(N)c(C#N)c(-c3ccc(F)cc3)c12",
    "Unit Name": "%",
    "activity, % sensitization": 6.23
  },
  {
    "Smiles Notation": "COc1cc(SC#N)ccc1N=Cc1c(C)[nH]n(-c2ccc(Cl)cc2)c1=O",
    "Unit Name": "%",
    "activity, % sensitization": -15.4
  },
  {
    "Smiles Notation": "O=C1CCCc2nc(N3CCc4ccccc43)ncc21",
    "Unit Name": "%",
    "activity, % sensitization": 0.829
  },
  {
    "Smiles Notation": "COCCCn1c(C(=O)Nc2ccc3c(c2)OCO3)cc2c(=O)n3cccc(C)c3nc21",
    "Unit Name": "%",
    "activity, % sensitization": -1.61
  },
  {
    "Smiles Notation": "COC(=O)CSc1nc2cc(C)ccc2cc1C#N",
    "Unit Name": "%",
    "activity, % sensitization": 15.2
  },
  {
    "Smiles Notation": "COc1ccc(OCC(=O)N/N=C/C=C/c2ccccc2)cc1",
    "Unit Name": "%",
    "activity, % sensitization": 31.1
  },
  {
    "Smiles Notation": "O=C(Oc1c(CN2CCOCC2)cc(Cl)c2cccnc12)c1cccs1",
    "Unit Name": "%",
    "activity, % sensitization": 8.65
  },
  {
    "Smiles Notation": "CCCCCCCn1c2c(c(=N)c3ccccc31)CCC2",
    "Unit Name": "%",
    "activity, % sensitization": 0.756
  },
  {
    "Smiles Notation": "O=C(N/N=C/c1cccc(OC(=O)c2ccco2)c1)c1ccc(F)cc1",
    "Unit Name": "%",
    "activity, % sensitization": 49.2
  },
  {
    "Smiles Notation": "O=C(Nc1ccc2c(c1)OCO2)c1ccc2c(c1)OCO2",
    "Unit Name": "%",
    "activity, % sensitization": 50.5
  },
  {
    "Smiles Notation": "CC(C)(C)OC(=O)[C@H](Cc1ccccc1)NC(=O)c1[nH]cnc1C(=O)Nc1ccccc1F",
    "Unit Name": "%",
    "activity, % sensitization": 6.22
  }
]

====

assay: HIF-1a luciferase reporter signal reduction – MiaPaCa-2 cells, single concentration, counter-screen for HIF-2a inhibitor project, confirmation (AID 651589); details: MiaPaCa-2 HIF-1a luciferase reporter, desferoxamine, overnight; at 18.8 µM; stronger effect = higher value
The list shows a part of the results.
Binary call on inhibition: class 1 from 80% upward, class 0 beneath that.

[
  {
    "Smiles Notation": "N#Cc1cccc(NC(=O)COC(=O)c2ccccc2C(=O)c2ccc(Cl)c([N+](=O)[O-])c2)c1",
    "Qualitative Label": "class 1"
  },
  {
    "Smiles Notation": "N#C/C(=C/c1cccc([N+](=O)[O-])c1)c1nnc2n1CCCCC2",
    "Qualitative Label": "class 0"
  },
  {
    "Smiles Notation": "CCc1ccc(CNC(=O)C2CCN(c3nnc(C)c4c(C)n(-c5ccc(C)cc5)nc34)CC2)cc1",
    "Qualitative Label": "class 0"
  }
]

====

experiment: caspase-8 TRAIL sensitization, hit retest, confirmation, cell-based, NB7+caspase-8, with/without TRAIL, luminescence panel (AID 651596); details: NB7 neuroblastoma + caspase-8, without TRAIL, luminescence viability, without TRAIL, mean of runs, at 10 µM

[
  {
    "Compound": "Cc1ccc2c(c1)sc(=NC(=O)c1cccs1)n2C",
    "activity": "90.7%"
  },
  {
    "Compound": "CCc1ccc(CNC(=O)Cc2ccc(NC(=O)C3=C(C)OCCS3)cc2)cc1",
    "activity": "59%"
  },
  {
    "Compound": "COc1ccc(NC(=O)c2cc3ccc(O)cc3o/c2=N\\O)cc1",
    "activity": "77.1%"
  },
  {
    "Compound": "CC(=O)c1ccc(N2CCN(c3ccc4cc(S(=O)(=O)N5CCC(C)CC5)ccc4n3)CC2)cc1",
    "activity": "19.2%"
  },
  {
    "Compound": "CC(=O)Oc1ccc(/C=C/c2nc3ccccc3c(=O)o2)cc1",
    "activity": "75.2%"
  },
  {
    "Compound": "Cc1ccc(C(=O)Nc2ncc(Cc3ccccc3)s2)o1",
    "activity": "75%"
  },
  {
    "Compound": "CN(C)C=Nc1ccc2nc3c(cc2c1)[nH]c1ccccc13",
    "activity": "76.3%"
  },
  {
    "Compound": "Cn1c(N)c(C(=O)COC(=O)c2cc(S(=O)(=O)N3CCOCC3)ccc2F)c(=O)n(C)c1=O",
    "activity": "93.8%"
  },
  {
    "Compound": "O=C(Nc1ccc(N2CCCCC2)cc1)c1ccccc1",
    "activity": "58.5%"
  },
  {
    "Compound": "CC1CCc2cc(F)ccc2N1C(=O)CCl (centres undefined)",
    "activity": "98.8%"
  },
  {
    "Compound": "Cc1ccc(C(=O)NC2CCCCCCC2)c(Cl)c1",
    "activity": "53.6%"
  },
  {
    "Compound": "C(=C\\c1nc2ccccc2[nH]1)/c1ccccc1",
    "activity": "93.6%"
  },
  {
    "Compound": "COc1ccc(-c2cc3ccccc3cn2)cc1",
    "activity": "54.3%"
  },
  {
    "Compound": "CN1/C(=C/C(=O)c2cccs2)Sc2ccccc21",
    "activity": "47%"
  },
  {
    "Compound": "O=C(c1ccncc1)N(Cc1cc2ccccc2[nH]c1=O)C1CCCCC1",
    "activity": "78.4%"
  },
  {
    "Compound": "COc1ccccc1-c1cc(C(=O)NC2CCN(C)CC2)c2ccc(Cl)c(C)c2n1",
    "activity": "86%"
  },
  {
    "Compound": "CCCCCCc1cc2cc(C(=O)Nc3ccc(OC)cc3)c(=O)oc2cc1O",
    "activity": "32.5%"
  },
  {
    "Compound": "COc1ccc(C(=O)Nc2ccc(C)cn2)c(OC)c1",
    "activity": "95.2%"
  },
  {
    "Compound": "Cc1onc(-c2c(F)cccc2Cl)c1C(=O)Nc1nc2ccccc2[nH]1",
    "activity": "30.2%"
  },
  {
    "Compound": "Fc1cccc(C2NN=C(c3ccccc3)S2)c1 (centres undefined)",
    "activity": "58.5%"
  },
  {
    "Compound": "COc1ccccc1C=C1CCc2ccccc2C1=O",
    "activity": "74.3%"
  },
  {
    "Compound": "Clc1ccc(CSc2nc3ccncc3[nH]2)cc1",
    "activity": "96.1%"
  },
  {
    "Compound": "COc1cccc(C(=O)Nc2ccc(NC(=O)C(C)(C)C)cn2)c1",
    "activity": "83%"
  },
  {
    "Compound": "Cc1cc(C(=O)COC(=O)c2ccccc2O)c(C)n1Cc1cccs1",
    "activity": "95.5%"
  }
]
